Where these numbers come from: paper PMC6862662

molecular target: BChE (Homo sapiens, UniProt P06276); construct: purchased cloud-clone corp., purchased through BIOCOM Africa (Pty) Ltd. RPC348Hu0 2_100; assay: biochemical; conditions: Selectivity index IC50 (AChE)/IC50 (BChE)
Sequence (P06276 29-602): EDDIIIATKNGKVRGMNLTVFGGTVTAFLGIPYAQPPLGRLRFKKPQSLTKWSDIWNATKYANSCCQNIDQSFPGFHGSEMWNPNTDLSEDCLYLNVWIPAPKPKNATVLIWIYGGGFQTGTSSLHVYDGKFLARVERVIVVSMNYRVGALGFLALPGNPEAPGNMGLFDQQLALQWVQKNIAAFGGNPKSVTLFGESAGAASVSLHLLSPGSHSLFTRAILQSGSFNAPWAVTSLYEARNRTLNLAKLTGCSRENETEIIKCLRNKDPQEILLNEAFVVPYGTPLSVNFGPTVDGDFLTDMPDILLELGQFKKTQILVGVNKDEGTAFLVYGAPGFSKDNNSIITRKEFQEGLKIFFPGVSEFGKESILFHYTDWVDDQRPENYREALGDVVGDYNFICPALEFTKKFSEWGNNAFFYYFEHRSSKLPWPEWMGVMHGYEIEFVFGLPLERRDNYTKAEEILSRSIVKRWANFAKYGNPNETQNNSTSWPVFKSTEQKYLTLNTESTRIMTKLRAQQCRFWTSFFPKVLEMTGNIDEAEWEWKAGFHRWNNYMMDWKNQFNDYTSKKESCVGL
// SI AChE/BChE lookup, one value per entry
Please reply with the value in numeric form only.

[
  {
    "structure.notation": "O=Cc1coc2cc3oc(C4=CCCCC4)cc3cc2c1=O",
    "target.desc": "BChE (Homo sapiens, UniProt P06276)",
    "SI AChE/BChE": 0.65
  }
]

Continue with the compound presented below.
Query block: Recorded SI AChE/BChE for O=Cc1coc2cc3oc(-c4ccccc4)cc3cc2c1=O , please?
Result block: 2.33

* * *

target: human recombinant BACE-1 (Homo sapiens, UniProt P56817); construct: purchased Pan Vera; host or cells: baculovirus-expressed; assay: β-secretase FRET inhibitory assay; assay type: biochemical; conditions: triplicate
Sequence (P56817 46-501): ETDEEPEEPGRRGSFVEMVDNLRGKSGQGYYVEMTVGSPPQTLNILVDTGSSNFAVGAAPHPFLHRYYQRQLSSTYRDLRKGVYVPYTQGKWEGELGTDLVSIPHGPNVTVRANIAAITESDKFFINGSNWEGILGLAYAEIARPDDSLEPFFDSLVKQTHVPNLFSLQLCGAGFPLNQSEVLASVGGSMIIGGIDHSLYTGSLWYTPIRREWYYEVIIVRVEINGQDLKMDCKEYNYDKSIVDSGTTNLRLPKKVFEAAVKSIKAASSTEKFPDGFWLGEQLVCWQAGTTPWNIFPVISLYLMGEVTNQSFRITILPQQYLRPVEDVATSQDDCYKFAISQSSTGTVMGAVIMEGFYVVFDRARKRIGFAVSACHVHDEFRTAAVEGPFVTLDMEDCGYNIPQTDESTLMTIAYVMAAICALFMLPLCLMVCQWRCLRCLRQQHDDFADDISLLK
Friendly reminder: IC50 below 30 µM is t, at or above is f.

[
  {
    "structure.notation": "O=Cc1coc2cc3oc(-c4cccc(F)c4)cc3cc2c1=O",
    "target.desc": "human recombinant BACE-1 (Homo sapiens, UniProt P56817)",
    "category": "t"
  },
  {
    "structure.notation": "O=c1c(C=NNc2ccc(C(F)(F)F)cc2)coc2cc3oc(-c4cccc(Cl)c4)cc3cc12",
    "target.desc": "human recombinant BACE-1 (Homo sapiens, UniProt P56817)",
    "category": "f"
  },
  {
    "structure.notation": "COc1ccc(-c2cc3cc4c(=O)c(C=NNc5ccc(C(F)(F)F)cc5)coc4cc3o2)cc1",
    "target.desc": "human recombinant BACE-1 (Homo sapiens, UniProt P56817)",
    "category": "t"
  },
  {
    "structure.notation": "O=c1c(C=NNc2ccc(C(F)(F)F)cc2)coc2cc3oc(-c4cccc(F)c4)cc3cc12",
    "target.desc": "human recombinant BACE-1 (Homo sapiens, UniProt P56817)",
    "category": "t"
  }
]

Proceed to the following item.
Query block: Below 30 µM on IC50? Entry COc1ccc(-c2cc3cc4c(=O)c(C=O)coc4cc3o2)cc1
Result block: t

* * *

target: AChE (Homo sapiens, UniProt P22303); construct: purchased BL, purchased through BIOCOM Africa (Pty) Ltd. 768104; test: biochemical
Sequence (P22303 32-614): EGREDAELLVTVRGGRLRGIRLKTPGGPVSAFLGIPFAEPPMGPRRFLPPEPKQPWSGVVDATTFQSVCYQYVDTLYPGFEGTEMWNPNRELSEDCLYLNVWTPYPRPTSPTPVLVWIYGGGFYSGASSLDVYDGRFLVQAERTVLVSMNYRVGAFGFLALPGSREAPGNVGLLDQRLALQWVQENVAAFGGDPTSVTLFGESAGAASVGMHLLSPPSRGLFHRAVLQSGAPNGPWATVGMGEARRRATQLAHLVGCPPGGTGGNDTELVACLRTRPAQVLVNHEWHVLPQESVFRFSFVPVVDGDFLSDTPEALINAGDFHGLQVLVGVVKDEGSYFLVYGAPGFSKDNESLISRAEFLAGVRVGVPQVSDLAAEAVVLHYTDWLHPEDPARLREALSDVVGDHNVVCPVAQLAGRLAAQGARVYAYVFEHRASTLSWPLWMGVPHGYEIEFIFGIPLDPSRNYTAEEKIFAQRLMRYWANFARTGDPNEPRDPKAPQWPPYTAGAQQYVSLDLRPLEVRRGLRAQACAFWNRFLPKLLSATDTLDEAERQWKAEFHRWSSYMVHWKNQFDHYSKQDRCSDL
measurement.label: IC50 (µM)
Response body: numeric value in µM, unit text excluded.

Query block: Recorded IC50 for COc1ccc(-c2cc3cc4c(=O)c(C=O)coc4cc3o2)cc1 [Compound 2f] , please?
Result block: 9.4

* * *

target: AChE (Homo sapiens, UniProt P22303); construct: purchased BL, purchased through BIOCOM Africa (Pty) Ltd. 768104; experiment: biochemical; conditions: Selectivity index IC50 (BChE)/IC50 (AChE)
The threshold is inclusive: SI BChE/AChE of exactly 1 counts as Met; values below receive Not met.

[
  {
    "structure.notation": "O=Cc1coc2cc3oc(-c4cccc(F)c4)cc3cc2c1=O",
    "target.desc": "AChE (Homo sapiens, UniProt P22303)",
    "category": "Met"
  },
  {
    "structure.notation": "O=Cc1coc2cc3oc(-c4ccccc4)cc3cc2c1=O",
    "target.desc": "AChE (Homo sapiens, UniProt P22303)",
    "category": "Not met"
  },
  {
    "structure.notation": "Cc1ccc(-c2cc3cc4c(=O)c(C=O)coc4cc3o2)cc1",
    "target.desc": "AChE (Homo sapiens, UniProt P22303)",
    "category": "Met"
  },
  {
    "structure.notation": "COc1cc(OC)cc(-c2cc3cc4c(=O)c(C=NNc5ccc(C(F)(F)F)cc5)coc4cc3o2)c1",
    "target.desc": "AChE (Homo sapiens, UniProt P22303)",
    "category": "Not met"
  },
  {
    "structure.notation": "O=c1c(C=NNc2ccc(C(F)(F)F)cc2)coc2cc3oc(-c4cccc(F)c4)cc3cc12",
    "target.desc": "AChE (Homo sapiens, UniProt P22303)",
    "category": "Met"
  }
]

Query block: Check if SI BChE/AChE >= 1 (inclusive). Item: O=c1c(C=NNc2ccc(C(F)(F)F)cc2)coc2cc3oc(-c4ccc(Cl)cc4)cc3cc12
Result block: Met

Query block: Check if SI BChE/AChE >= 1 (inclusive). Item: O=c1c(C=NNc2ccc(C(F)(F)F)cc2)coc2cc3oc(-c4ccc(F)cc4)cc3cc12
Result block: Not met

Query block: Check if SI BChE/AChE >= 1 (inclusive). Item: COc1ccc(-c2cc3cc4c(=O)c(C=O)coc4cc3o2)cc1
Result block: Not met

Query block: Check if SI BChE/AChE >= 1 (inclusive). Item: COc1ccc(-c2cc3cc4c(=O)c(C=NNc5ccc(C(F)(F)F)cc5)coc4cc3o2)cc1
Result block: Met

Query block: Check if SI BChE/AChE >= 1 (inclusive). Item: O=Cc1coc2cc3oc(-c4ccc(F)cc4)cc3cc2c1=O
Result block: Met

Query block: Check if SI BChE/AChE >= 1 (inclusive). Item: Cc1ccc(-c2cc3cc4c(=O)c(C=NNc5ccc(C(F)(F)F)cc5)coc4cc3o2)cc1
Result block: Met

Query block: Check if SI BChE/AChE >= 1 (inclusive). Item: O=c1c(C=NNc2ccc(C(F)(F)F)cc2)coc2cc3oc(-c4cccc(Cl)c4)cc3cc12
Result block: Not met

Query block: Check if SI BChE/AChE >= 1 (inclusive). Item: O=c1c(C=NNc2ccc(C(F)(F)F)cc2)coc2cc3oc(-c4ccccc4)cc3cc12
Result block: Met

Query block: Check if SI BChE/AChE >= 1 (inclusive). Item: O=Cc1coc2cc3oc(C4=CCCCC4)cc3cc2c1=O
Result block: Met

Query block: Check if SI BChE/AChE >= 1 (inclusive). Item: COc1cc(OC)cc(-c2cc3cc4c(=O)c(C=O)coc4cc3o2)c1
Result block: Met

Query block: Check if SI BChE/AChE >= 1 (inclusive). Item: O=Cc1coc2cc3oc(-c4cccc(Cl)c4)cc3cc2c1=O
Result block: Not met

Query block: Check if SI BChE/AChE >= 1 (inclusive). Item: O=c1c(C=NNc2ccc(C(F)(F)F)cc2)coc2cc3oc(C4=CCCCC4)cc3cc12
Result block: Met
